Target: Matrilysin (Homo sapiens)
Sequence (P09237 whole entry): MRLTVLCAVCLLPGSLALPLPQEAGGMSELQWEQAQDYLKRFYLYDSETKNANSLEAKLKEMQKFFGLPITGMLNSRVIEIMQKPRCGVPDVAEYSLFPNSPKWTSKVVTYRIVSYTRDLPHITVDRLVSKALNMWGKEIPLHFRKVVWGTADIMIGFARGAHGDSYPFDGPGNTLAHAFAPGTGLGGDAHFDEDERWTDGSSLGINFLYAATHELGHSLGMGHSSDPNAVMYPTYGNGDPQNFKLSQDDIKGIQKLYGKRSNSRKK
Test: Inhibition of recombinant human […]-activated MMP7 using Cy3-PLGLK(Cy5Q)AR-NH2 as substrate measured after 40 mins by spectrofluorimetric method
Entries and their pIC50 values follow.
Units for pIC50: none; it is -log10 of a concentration expressed in mol/L.

These solved cases illustrate the format of a correct answer.
{"MOLECULE": "CC(C)[C@H](NS(=O)(=O)c1ccc(-c2cccc(CNC(=O)c3nc4ccccc4c(=O)[nH]3)c2)cc1)C(=O)O", "MEASURED": 6.00}
{"MOLECULE": "CC(C)[C@H](NS(=O)(=O)c1ccc(-c2cccc(CNC(=O)c3nc4ccccc4c(=O)[nH]3)c2)cc1)C(=O)NO", "MEASURED": 8.14}
{"MOLECULE": "O=C(NCc1cccc(OCCCS(=O)(=O)N2CCCCC2C(=O)NO)c1)c1nc2ccccc2c(=O)[nH]1 (stereo not drawn)", "MEASURED": 5.70}

Request: Requested read-out: pIC50. Entry: CC(C)C(CS(=O)(=O)c1ccc(-c2cccc(CNC(=O)c3nc4ccccc4c(=O)[nH]3)c2)cc1)N(O)C=O (stereo not drawn)
Response: 7.52
